B1: Far upstream element-binding protein 1, residues 98 to 169; numbered along this chain, Q96AE4 (parent)
chain: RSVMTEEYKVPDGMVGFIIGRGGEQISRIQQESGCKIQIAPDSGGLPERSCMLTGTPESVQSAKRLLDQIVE

# Variants of: B1
# procedure.text: abundance fitness (aPCA) (normalised: wild type 0, dead -1); higher = more abundant; growth selection in yeast, the domain comes from the species named
# test.parameters: Homo sapiens
Each record gets a class by abundance fitness: group 1 (below -0.1), group 2 (-0.1 to below -0.06), group 3 (-0.06 or more)

# variant.key, group
data = [
    ("S33L", "group 1"),
    ("V3S", "group 2"),
    ("A40P", "group 3"),
    ("P11V", "group 1"),
]

Which band does G34S fall in?
group 1

Hello, the source for this data is the Human Domainome abundance scans (Beltran et al. 2025), in case you need it.
